- Tested on: Staphylococcus aureus
- test: In vitro antibacterial activity against methicillin susceptible Staphylococcus aureus UC 9213 (MSSA)
- Format: functional
outcome-measure: MIC

INSERT INTO assay_data (smiles_repr, recorded_result) VALUES
  ('CC(=O)NC[C@H]1CN(c2ccc(-c3nnc(O)s3)c(F)c2)C(=O)O1', '1 µg/mL'),
  ('CSCc1nnc(-c2ccc(N3C[C@H](CNC(C)=O)OC3=O)cc2F)s1', '1 µg/mL'),
  ('CC(=O)NC[C@H]1CN(c2ccc(-c3nnc(CC#N)s3)c(F)c2)C(=O)O1', '2 µg/mL');

---

- Test system: Enterococcus faecalis
- test: In vitro antibacterial activity against vancomycin resistant Enterococcus faecalis UC 9217 (VREA)
- Type: functional
outcome-measure: log10 of MIC (log10 of the value in µg/mL)

INSERT INTO assay_data (compound, recorded_result) VALUES
  ('CC(=O)NC[C@H]1CN(c2ccc(-c3nnc(COC(C)=O)s3)c(F)c2)C(=O)O1', 0.00),
  ('CC(=O)NC[C@H]1CN(c2ccc(-c3nnc(C[S+](C)[O-])s3)c(F)c2)C(=O)O1 (some centres undefined)', 0.60),
  ('C/C(S)=N/C[C@H]1CN(c2ccc(-c3nncs3)c(F)c2)C(=O)O1', -0.90),
  ('CC(=O)NC[C@H]1CN(c2ccc(-c3nnc(CC/C(C)=N/O)s3)c(F)c2)C(=O)O1', 0.00),
  ('CC(=O)NC[C@H]1CN(c2ccc(-c3nnc(CC#N)s3)c(F)c2)C(=O)O1', 0.00),
  ('C/C(S)=N/C[C@H]1CN(c2ccc(-c3nnc(CS(C)(=O)=O)s3)c(F)c2)C(=O)O1', -0.60),
  ('CC(=O)NC[C@H]1CN(c2ccc(-c3nnc(CS(C)(=O)=O)s3)c(F)c2)C(=O)O1', 0.30),
  ('CNCc1nnc(-c2ccc(N3C[C@H](CNC(C)=O)OC3=O)cc2F)s1', 0.30);
